Reference source: ChEMBL document CHEMBL1151568

# SYSTEM NAME: Prostacyclin receptor (Homo sapiens)
# Sequence (P43119 whole entry): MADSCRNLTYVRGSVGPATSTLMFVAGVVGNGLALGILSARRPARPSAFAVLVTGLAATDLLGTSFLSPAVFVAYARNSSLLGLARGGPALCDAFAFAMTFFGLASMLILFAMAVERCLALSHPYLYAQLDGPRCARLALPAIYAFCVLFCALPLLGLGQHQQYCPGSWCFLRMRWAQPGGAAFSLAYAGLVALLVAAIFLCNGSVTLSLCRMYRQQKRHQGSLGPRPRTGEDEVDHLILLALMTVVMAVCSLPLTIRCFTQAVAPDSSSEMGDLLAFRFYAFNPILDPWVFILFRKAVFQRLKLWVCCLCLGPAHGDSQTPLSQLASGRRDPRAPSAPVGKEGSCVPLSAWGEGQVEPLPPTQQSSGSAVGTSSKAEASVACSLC
# TEST NAME: Compound was tested for Prostanoid IP receptor affinity and expressed as competition factor (CF) which is the ratio of IC50 of test to IC50 of standard
ENDPOINT LABEL: CF

Here's what some known entries look like.
{"columns": ["SMILES ENTRY", "CF"],
 "data": [
  ["O=C(O)CCC/C=C1\\C[C@H]2C[C@@H](O)[C@H](/C=N\\OC(c3ccccc3)c3ccccc3)[C@H]2C1", 160],
  ["O=C(O)CCC/C=C1/C[C@H]2C[C@@H](O)[C@H](/C=N/OCc3ccc4ccccc4c3)[C@H]2C1", 76]
]}

1 = O=C(O)CCC/C=C1\C[C@H]2C[C@@H](O)[C@H](/C=N/OCc3ccc(F)cc3)[C@H]2C1
2 = O=C(O)CCC/C=C1/C[C@H]2C[C@@H](O)[C@H](/C=N/OCc3ccccc3)[C@H]2C1
3 = O=C(O)CCC/C=C1\C[C@H]2C[C@@H](O)[C@H](/C=N/OCc3ccc4ccccc4c3)[C@H]2C1
4 = O=C(O)CCC/C=C1\C[C@H]2C[C@@H](O)[C@H](/C=N/OCc3ccccc3)[C@H]2C1
5 = O=C(O)CCC/C=C1/C[C@H]2C[C@@H](O)[C@H](/C=N/OCc3ccc(F)cc3)[C@H]2C1
Query string: Rank the items in ascending order with respect to CF. Rank them, then answer with their labels in that order.
Result string: 4, 1, 3, 2, 5

###

# SYSTEM NAME: Thromboxane A2 receptor (Homo sapiens) (UniProt P21731)
# Sequence (P21731 whole entry): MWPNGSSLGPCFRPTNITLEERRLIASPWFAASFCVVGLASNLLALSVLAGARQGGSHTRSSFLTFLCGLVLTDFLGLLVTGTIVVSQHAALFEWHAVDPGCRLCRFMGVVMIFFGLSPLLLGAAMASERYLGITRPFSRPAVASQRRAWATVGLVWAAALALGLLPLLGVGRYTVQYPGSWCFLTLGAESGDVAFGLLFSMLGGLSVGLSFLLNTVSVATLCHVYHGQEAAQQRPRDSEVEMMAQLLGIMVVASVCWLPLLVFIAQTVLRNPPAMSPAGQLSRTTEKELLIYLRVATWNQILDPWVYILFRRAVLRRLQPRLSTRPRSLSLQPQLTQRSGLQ
# TEST NAME: Antiaggregatory potency relative to TP-receptor antagonist SQ 29548
# Format: functional
ENDPOINT LABEL: Relative potency

I = O=C(O)CCC/C=C1/C[C@H]2C[C@@H](O)[C@H](/C=N/OCc3ccc(F)cc3)[C@H]2C1
II = O=C(O)CC/C=C1/C[C@H]2C[C@@H](O)[C@H](/C=N/NC(=O)Nc3cccc(Cl)c3)[C@H]2C1
Query string: // max by Relative potency over [ I , II ] Provide the label of your selected option as the answer.
Result string: II

###

# SYSTEM NAME: Thromboxane A2 receptor (Homo sapiens)
# TEST NAME: TP receptor affinity, expressed as competition factor (CF) which is the ratio of IC50 of test to IC50 of standard
ENDPOINT LABEL: CF

{"columns": ["SMILES ENTRY", "CF"],
 "data": [
  ["O=C(O)CCC/C=C1\\C[C@H]2C[C@@H](O)[C@H](/C=N/NC(=O)Nc3ccccc3)[C@H]2C1", 20]
]}

A = O=C(O)CC/C=C1\C[C@H]2C[C@@H](O)[C@H](/C=N/NC(=O)Nc3ccccc3)[C@H]2C1
B = O=C(O)COC/C=C1\C[C@H]2C[C@@H](O)[C@H](/C=N/NC(=O)Nc3ccc([N+](=O)[O-])cc3)[C@H]2C1
Query string: // max by CF over [ A , B ] Provide the label of your selected option as the answer.
Result string: A

1 = O=C(O)CCC/C=C1/C[C@H]2C[C@@H](O)[C@H](/C=N\OC(c3ccccc3)c3ccccc3)[C@H]2C1
2 = O=C(O)CCC/C=C1\C[C@H]2CC[C@H](/C=N/NC(=O)Nc3ccc(Cl)c(Cl)c3)[C@H]2C1
3 = O=C(O)CCC/C=C1\C[C@H]2C[C@@H](O)[C@H](/C=N/NC(=O)Nc3ccc(Cl)c(Cl)c3)[C@H]2C1
Query string: Rank the items in ascending order with respect to CF. Rank them, then answer with their labels in that order.
Result string: 3, 2, 1
(3: 0.8, 2: 4.3, 1: 210)
